Kindly supply the reported pEC50 values for the records listed here.
Biological target: LPA/S1P GPCR of interest (Homo sapiens, UniProt Q92633)
Sequence (Q92633 whole entry): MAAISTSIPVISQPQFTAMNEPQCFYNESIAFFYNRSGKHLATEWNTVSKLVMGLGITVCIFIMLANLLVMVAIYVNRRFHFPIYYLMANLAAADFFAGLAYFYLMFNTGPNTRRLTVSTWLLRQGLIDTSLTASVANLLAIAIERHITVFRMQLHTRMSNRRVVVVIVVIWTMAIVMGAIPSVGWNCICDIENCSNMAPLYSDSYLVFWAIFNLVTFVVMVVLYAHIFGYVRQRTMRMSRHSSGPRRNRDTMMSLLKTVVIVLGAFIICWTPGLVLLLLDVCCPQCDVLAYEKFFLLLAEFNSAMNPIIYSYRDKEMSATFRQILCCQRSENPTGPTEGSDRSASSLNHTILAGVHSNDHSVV
Assay: Beta-Arrestin based assay (PathHunter)
pEC50: −log10 of the molar value.

Solved entries (count: 3):
# Molecule, pEC50
data = [
    ("C[C@@H](OC(=O)Nc1c(-c2cc3sc(-c4ccc5scc(C6(C(=O)O)CC6)c5c4)cc3s2)nnn1C)c1ccccc1", "< 6.30"),
    ("C[C@@H](OC(=O)Nc1c(-c2cc3sc(-c4ccc(CC(=O)O)c(Cl)c4)cc3s2)cnn1C)c1ccccc1", "6.30 to 7.30"),
    ("Cc1noc(-c2ccc(-c3ccc(Oc4c(F)cccc4C(=O)O)c(F)c3)cc2)c1NC(=O)O[C@H](C)c1ccccc1", "> 7.30"),
]

Quick one: give me pEC50 for each item below, same order please.
1. C[C@@H](OC(=O)Nc1c(-c2cc3sc(-c4cc(F)c(C5(C(=O)O)CC5)c(F)c4)cc3s2)nnn1C)c1ccccc1
2. C[C@@H](OC(=O)Nc1[nH]ncc1C#Cc1cc2sc(C3(C(=O)O)CC3)cc2s1)c1ccccc1
3. C[C@@H](OC(=O)Nc1c(-c2cc3sc(-c4ccc(CC(=O)O)c5ccccc45)cc3s2)nnn1C)c1ccccc1
4. C[C@@H](OC(=O)NC1=C(c2ccc(-c3cc(F)c(OC(C)(C)C(=O)O)c(F)c3)cc2)OC2C=CC=CC12)c1ccccc1 (stereo partly drawn)
5. COc1cc(C2(C(=O)O)CC2)c(F)cc1-c1cc2sc(-c3cnn(C)c3NC(=O)O[C@H](C)c3ccccc3)cc2s1

Ans.
1. > 7.30
2. < 6.30
3. < 6.30
4. 6.30 to 7.30
5. 6.30 to 7.30

Per the record, C[C@@H](OC(=O)Nc1c(-c2cc3sc(-c4ccc(CC(=O)O)cc4OC(F)(F)F)cc3s2)nnn1C)c1ccccc1 has pEC50 of < 6.30

From: patent US20140213538A1
